Target: gabapentin binding site
Test: Gabapentin binding assay (displacement of gabapentin from its binding site)
Settings: displacement of gabapentin; read-out: Affinity (IC50)
Counter-ions that a name gives are not always drawn.
experimental readout: IC50 (nM)
Give the value in nM but do not write nM after it.

Use these answered entries as a reference point.
• CCCCCCC(C)(SCC)C(N)C(=O)O (racemic) [Compound 19, hydrochloride] = 271
• CCCCCCC(C)(SCCC)C(N)C(=O)O (racemic) [Compound 20, hydrochloride] = 3050
• Cl.NC(C(=O)O)C1(S)CCCC1 (racemic) [Compound 8, hydrochloride] = 151

Lookup: For the compound CC1CCCCC1(S)C(N)C(=O)O (racemic) [Compound 33, hydrochloride] , give its measured IC50 value.
Found: 528

---

Test system: gabapentin binding site
Assay: Gabapentin binding assay (displacement of gabapentin from its binding site)
Conditions: inhibition of gabapentin binding
Method: Gabapentin is used in the binding assay in order to determine the binding and affinities of the selected compounds. The affinity of the compounds according to the invention is measured via the displacement of gabapentin from its binding site.
Counter-ions that a name gives are not always drawn.
experimental readout: % Inhibition (Concn.)

Example entries and their recorded answers appear below.
* CCCCCC(C)(SCC)C(N)C(=O)O.Cl (racemic) | 92% (10^−5 μm)
* CC(C)C(C)(S)C(N)C(=O)O.Cl (racemic) | 88% (10^−5 μm)
* Cl.NC(C(=O)O)C1(S)CCSCC1 (racemic) | 84% (10^−5 μm)
* CCCCCCCC(C)(SCc1ccccc1)C(N)C(=O)O.Cl (racemic) | 91% (10^−5 μm)
* CCCCC(C)(S)C(N)C(=O)O.Cl (racemic) | 99.7%
* Cl.NC(C(=O)O)C(S)(c1ccc(F)cc1)C1CC1 (racemic) | 40% (10^−5 μm)
* CCCC(S)(CC)C(N)C(=O)O.Cl (racemic) | 97.5%
* Cl.NC(C(=O)O)C1(S)CCCCCC1 (racemic) | 15% (10^−5 μm)

Lookup: Let me know recorded % Inhibition (Concn.) for CC(S)(c1cccs1)C(N)C(=O)O.Cl (racemic) , thanks.
Found: 30% (10^−5 μm)

Lookup: Return value of % Inhibition (Concn.) for input CCCCCC(C)(SCc1ccccc1)C(N)C(=O)O (racemic) [Compound 16, hydrochloride] , no commentary.
Found: 93%

Lookup: Give a short answer stating reported % Inhibition (Concn.) for CCCCCCCC(C)(SCC)C(N)C(=O)O.Cl (racemic) .
Found: 90% (10^−5 μm)

---

Molecular target: gabapentin binding site
Assay: Gabapentin binding assay (displacement of gabapentin from its binding site)
Details: displacement of gabapentin; read-out: Affinity (IC50)
Structures can show the parent of a compound that is named as a salt.
experimental readout: IC50 (nM)
Write it as a number; the unit nM goes unstated.

Examples with their reported IC50 follow.
* CC(S)(C1CCC1)C(N)C(=O)O (racemic) [Compound 27, hydrochloride] | 589
* NC(C(=O)O)C1(S)CCCCC1 (racemic) [Compound 31, hydrochloride] | 187
* CCCCC(S)(CC)C(N)C(=O)O (racemic) [Compound 30, hydrochloride] | 314
* CCC(C)C(C)(S)C(N)C(=O)O (racemic) [Compound 37, hydrochloride] | 196
* CCCCCCC(C)(SCc1ccccc1)C(N)C(=O)O (racemic) [Compound 22, hydrochloride] | 336
* CCC(C)(S)C(N)C(=O)O (racemic) [Compound 1, hydrochloride] | 268
* CC1CCCC(S)(C(N)C(=O)O)C1 (racemic) [Compound 32, hydrochloride] | 223
* CC(S)(C1CCCCC1)C(N)C(=O)O (racemic) [Compound 28, hydrochloride] | 1320
* CCC(S)(CC)C(N)C(=O)O (racemic) [Compound 7, hydrochloride] | 258
* CCCCCCSC(C)(CCCCCC)C(N)C(=O)O (racemic) [Compound 21, hydrochloride] | 12400

Lookup: Report IC50, nothing else, for this compound: CCCCC(C)(S)C(N)C(=O)O.Cl (racemic) [Compound 3, hydrochloride]
Found: 280

Lookup: Annotate the compound CCCCCC(C)(SCc1ccccc1)C(N)C(=O)O (racemic) [Compound 16, hydrochloride] with its measured IC50.
Found: 1800

---

Test system: formalin-induced nociception
Assay: Formalin test on mice (second phase)
Assay type: in vivo
Settings: iv; mouse, i.v., second phase; read-out: Mouse Formalin Test ED50
ED50 by entry:
Only the number, expressed in mg/kg, is required.

Please review the following examples before continuing.
- CCCCCC(C)(S)C(N)C(=O)O.Cl (racemic): 67
- Cl.NC(C(=O)O)C1(S)CCCC1 (racemic): 79
- CCCC(C)(S)C(N)C(=O)O.Cl (racemic): 158

Now examine the next entry.
Lookup: Read the entry CCCCCCCC(C)(S)C(N)C(=O)O.Cl (racemic) and write its reported ED50.
Found: 66

---

Biological target: gabapentin binding site
Assay: Gabapentin binding assay (displacement of gabapentin from its binding site)
Conditions: displacement of gabapentin; hydrochloride; read-out: Affinity (IC50)
Counter-ions that a name gives are not always drawn.
experimental readout: IC50 (nM)
Your answer is read as nM, so omit the unit and give the number.

// solved cases for IC50 follow
* CCCCCC(C)(S)C(N)C(=O)O (racemic) [Compound 14, hydrochloride] | 100
* CCCCCCC(C)(S)C(N)C(=O)O (racemic) [Compound 13, hydrochloride] | 30

Lookup: Tell me its IC50 given CCCCCCCC(C)(S)C(N)C(=O)O.Cl (racemic) [Compound 10, hydrochloride] as the entry.
Found: 150

Lookup: Note IC50 for the compound shown: CCCCCCCC(C)(S)C(N)C(=O)O.Cl (racemic) [Compound 6, hydrochloride]
Found: 199

---

Biological target: gabapentin binding site
Assay: Gabapentin binding assay (displacement of gabapentin from its binding site)
Details: displacement of gabapentin; read-out: Affinity (IC50)
Structures can show the parent of a compound that is named as a salt.
experimental readout: IC50 (nM)
Kindly answer with a numeric value in nM, unit omitted.

• CC(S)(C1CC1)C(N)C(=O)O (racemic) [Compound 26, hydrochloride] = 703
• CCCC(S)(CCC)C(N)C(=O)O (racemic) [Compound 17, hydrochloride] = 2350
• CCCC(S)(CC)C(N)C(=O)O.Cl (racemic) [Compound 9, hydrochloride] = 339
• CCCC(C)(S)C(N)C(=O)O.Cl (racemic) [Compound 2, hydrochloride] = 165

Lookup: Query IC50 for CC1CCC(S)(C(N)C(=O)O)CC1 (racemic) [Compound 34, hydrochloride]
Found: 1000

---

Entries and their measured IC50 follow.
Target: gabapentin binding site
Assay: Gabapentin binding assay (displacement of gabapentin from its binding site)
Details: displacement of gabapentin; hydrochloride; read-out: Affinity (IC50)
Where a name gives a salt, the structure may show the parent alone.
Give the value, in units of nM, as a plain number.

Recorded results for 3 compounds are shown here.
* CCCCCCC(C)(S)C(N)C(=O)O (racemic) [Compound 12, hydrochloride] | 70
* CCCCCCC(C)(S)C(N)C(=O)O.Cl (racemic) [Compound 5, hydrochloride] | 70
* CCCCCCCC(C)(S)C(N)C(=O)O (racemic) [Compound 11, hydrochloride] | 120

Turning now to a further compound:
Lookup: Lab note: record IC50 of CCCCCC(C)(S)C(N)C(=O)O.Cl (racemic) [Compound 4, hydrochloride] tested on gabapentin binding site.
Found: 186

The measurements presented in this section are drawn from patent US6846843B2.
